Test: Pharmacokinetic study in rats (plasma LC-MS/MS) after iv or oral VOC, oral VOC-P188 or oral VOC-β-CD
Assay type: in vivo, Sprague Dawley rats
Settings: male, Sprague-Dawley, rat, plasma, iv, 30 mg/kg, VOC iv 30 mg/kg, rat plasma, n = 6; read-out: t1/2β (converted)
observedProperty: half-life

Some solved entries appear below for comparison.
CCC/C=C1\OC(=O)c2ccccc21 [BP] :: 42 min
CCCC[C@@H]1OC(=O)c2ccccc21 [NBP, N-butylphthalide, reference compound] :: 15.6 min

Sample CCCC[C@@H]1OC(=O)C2=CCCC[C@H]21 [NOL, Neocnidilide] ; half-life observed: 18 min

Please fill in: half-life reported for CCCCC1OC(=O)C2=C1CCC=C2 (centres unmarked) [SA, senkyunolide A] = 46.8 min

What the record says about CCC/C=C1\OC(=O)C2=C1CCC=C2 [ZL, Z-ligustilide] : half-life is 33 min
